- Tested on: NCI/ADR-RES
- ASSAY OVERVIEW: Antiproliferative activity against human MCF7ADR cells assessed as survival rate at 5 uM incubated for 72 hrs by MTT assay
- Assay type: functional
- DETAILS: read-out: Survival
viability at 5 µM values by entry
Field: numeric (%). Do not append units.

Worked examples follow.
| SMILES RECORD | OBSERVED PROPERTY | TEST RESULT |
| --- | --- | --- |
| COc1cc(-c2c(-c3ccc(Cl)cc3)c(C)nc3cc(-c4ccccc4)nn23)cc(OC)c1OC | viability at 5 µM | 90.3 |
| COc1cc(-c2c(C)nc3cc(-c4ccco4)nn3c2-c2cc(OC)c(OC)c(OC)c2)cc(OC)c1OC | viability at 5 µM | 89.9 |
| COc1cc(-c2c(-c3ccc(F)cc3)c(C)nc3cc(-c4ccco4)nn23)cc(OC)c1OC | viability at 5 µM | 93.8 |
| COc1cc(-c2c(-c3ccc(Cl)cc3)c(C)nc3cc(-c4ccco4)nn23)cc(OC)c1OC | viability at 5 µM | 94.7 |
| COc1cc(-c2c(-c3ccc(Br)cc3)c(C)nc3cc(-c4ccccc4)nn23)cc(OC)c1OC | viability at 5 µM | 95.1 |

Look up viability at 5 µM for this compound: "COc1cc(-c2c(C)nc3cc(-c4cccs4)nn3c2-c2cc(OC)c(OC)c(OC)c2)cc(OC)c1OC"
95

Queued: "COc1ccc(-c2c(C)nc3cc(C)nn3c2-c2cc(OC)c(OC)c(OC)c2)cc1"
95.2
